- Test system: SREBP
- Experiment notes: SREBP induction in human liver (HepG2) cells, RT-PCR
- Format: cell-based
- Design: key: fold induction vs DMSO control
- Applied conditions: 300 nM; Control 1.00; lower numbers indicate better safety; Table 2
Measured property: SREBP
# print the numeric value only

Lab note: CCN(c1ccc(C(=O)O)cc1)c1cc(C(C)(C)C)cc(C(C)(C)C)c1 [Compound 8] gave SREBP of 1.95

Lab note: C/C(=C/C=C/C(C)=C/C(=O)O)c1cc(C(C)(C)C)cc(C(C)(C)C)c1OCC(F)F [LG101506, reference compound] gave SREBP of 1.12

Lab note: C=C(c1ccc(C(=O)O)cc1)c1cc(C(C)(C)C)cc(C(C)(C)C)c1 [Compound 3] gave SREBP of 1.14

Lab note: CCCN(c1cc(C(C)(C)C)cc(C(C)(C)C)c1)c1ccc(C(=O)O)cn1 [Compound 13] gave SREBP of 2.44

Lab note: CC(C)(C)c1cc(-n2c(C(F)(F)F)nc3cc(C(=O)O)ccc32)cc(C(C)(C)C)c1 [Compound 7] gave SREBP of 1.57
